Biological target: 15N-labelled NDM-1 (Klebsiella pneumoniae)
Construct: made in house
Assay: 1H,15N HSQC NMR chemical shift perturbation titration, NDM-1
Format: binding
Conditions: Estimated binding constant (Kd), residue 229Y, Table S5; per-residue fit, NDM-1 229Y
Please use t for Kd under 2 mM and f for everything else, ties included.

- compound: "O=C(Cc1cccs1)NC(C1CCCCN1)P(=O)(O)O (centres unmarked) [Compound 5i-2]"
  assigned.class: "f"
- compound: "O=C(Cc1ccsc1)NC(C1CCCCN1)P(=O)(O)O (centres unmarked)"
  assigned.class: "t"
- compound: "O=C(NC(C1CCCCN1)P(=O)(O)O)c1cccs1 (centres unmarked)"
  assigned.class: "f"
- compound: "O=C(Cc1cccs1)NC(C1CCCCN1)P(=O)(O)O (centres unmarked) [Compound 5i-1]"
  assigned.class: "t"
- compound: "O=C(NC(C1CCCCN1)P(=O)(O)O)c1ccsc1 (centres unmarked)"
  assigned.class: "f"

* * *

Target: 15N-labelled NDM-1 (Klebsiella pneumoniae, UniProt C7C422)
Construct: made in house
Sequence (C7C422 29-270 limits assumed): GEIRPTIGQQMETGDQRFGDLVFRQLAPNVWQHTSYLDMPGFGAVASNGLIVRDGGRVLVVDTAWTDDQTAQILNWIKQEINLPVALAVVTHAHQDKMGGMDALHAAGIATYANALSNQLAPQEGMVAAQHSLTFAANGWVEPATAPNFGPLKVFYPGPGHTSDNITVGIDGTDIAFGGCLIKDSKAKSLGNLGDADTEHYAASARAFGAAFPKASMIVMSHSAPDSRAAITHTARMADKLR
Assay: 1H,15N HSQC NMR chemical shift perturbation titration, NDM-1
Assay type: binding
Conditions: Estimated binding constant (Kd), residue 124D, Table S5; per-residue fit, NDM-1 124D
pKd: −log10 of the molar value.
Decide by pKd: equal to or exceeding 2 means 1, less means -1.

- molecule: "O=C(Cc1ccsc1)NC(C1CCCCN1)P(=O)(O)O (centres unmarked)"
  assigned.class: -1
- molecule: "O=C(NC(C1CCCCN1)P(=O)(O)O)c1ccsc1 (centres unmarked)"
  assigned.class: 1
- molecule: "O=C(NC(C1CCCCN1)P(=O)(O)O)c1cccs1 (centres unmarked)"
  assigned.class: 1
- molecule: "O=C(Cc1cccs1)NC(C1CCCCN1)P(=O)(O)O (centres unmarked) [Compound 5i-2]"
  assigned.class: -1
- molecule: "O=C(Cc1cccs1)NC(C1CCCCN1)P(=O)(O)O (centres unmarked) [Compound 5i-1]"
  assigned.class: 1

* * *

Target: 15N-labelled NDM-1 (Klebsiella pneumoniae, UniProt C7C422)
Construct: made in house
Assay: 1H,15N HSQC NMR chemical shift perturbation titration, NDM-1
Assay type: binding
Conditions: Estimated binding constant (Kd), residue 228H, Table S5; per-residue fit, NDM-1 228H

- molecule: "O=C(Cc1ccsc1)NC(C1CCCCN1)P(=O)(O)O (centres unmarked) [Compound 5j-1]"
  Kd: "4.94 mM"
- molecule: "O=C(NC(C1CCCCN1)P(=O)(O)O)c1ccsc1 (centres unmarked) [Compound 5c-1]"
  Kd: "17.9 mM"
- molecule: "O=C(Cc1cccs1)NC(C1CCCCN1)P(=O)(O)O (centres unmarked) [Compound 5i-2]"
  Kd: "10.1 mM"
- molecule: "O=C(Cc1cccs1)NC(C1CCCCN1)P(=O)(O)O (centres unmarked) [Compound 5i-1]"
  Kd: "3.08 mM"
- molecule: "O=C(NC(C1CCCCN1)P(=O)(O)O)c1cccs1 (centres unmarked) [Compound 5b-1]"
  Kd: "11 mM"

* * *

Biological target: 15N-labelled NDM-1 (Klebsiella pneumoniae)
Construct: made in house
Experiment: 1H,15N HSQC NMR chemical shift perturbation titration, NDM-1
Type: binding
Conditions: Estimated binding constant (Kd), residue 197G, Table S5; per-residue fit, NDM-1 197G
pKd: −log10 of the molar value.
Each entry gets F if its pKd stays under 2, and T if its pKd is 2 or above.

- compound: "O=C(Cc1ccsc1)NC(C1CCCCN1)P(=O)(O)O (centres unmarked)"
  assigned.class: "T"
- compound: "O=C(Cc1cccs1)NC(C1CCCCN1)P(=O)(O)O (centres unmarked) [Compound 5i-2]"
  assigned.class: "F"
- compound: "O=C(NC(C1CCCCN1)P(=O)(O)O)c1ccsc1 (centres unmarked)"
  assigned.class: "T"
- compound: "O=C(Cc1cccs1)NC(C1CCCCN1)P(=O)(O)O (centres unmarked) [Compound 5i-1]"
  assigned.class: "T"

Source: paper PMC10650955
